# measured_on: D(2) dopamine receptor (Homo sapiens, UniProt P14416)
# Sequence (P14416 whole entry): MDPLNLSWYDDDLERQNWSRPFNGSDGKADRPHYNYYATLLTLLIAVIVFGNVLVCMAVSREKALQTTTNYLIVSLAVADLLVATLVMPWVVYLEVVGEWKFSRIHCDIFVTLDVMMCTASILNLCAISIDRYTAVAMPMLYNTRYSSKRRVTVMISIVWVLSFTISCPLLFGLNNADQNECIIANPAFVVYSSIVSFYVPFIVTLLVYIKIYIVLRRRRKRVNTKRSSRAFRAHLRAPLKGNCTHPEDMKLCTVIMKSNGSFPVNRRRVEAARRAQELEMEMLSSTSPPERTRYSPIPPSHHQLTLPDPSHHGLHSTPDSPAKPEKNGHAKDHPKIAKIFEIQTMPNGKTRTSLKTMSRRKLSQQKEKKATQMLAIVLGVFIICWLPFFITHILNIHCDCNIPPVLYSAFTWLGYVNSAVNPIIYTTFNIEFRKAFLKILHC
pKi: −log10 of the molar value.
True means recorded pKi is 7 or above; False means it is below 7.

smiles: CN[C@@H]1Cc2cccc3c2n(c(=O)n3CCCCCCOCCCCc2ccccc2)C1
label_value: True
//
smiles: CN[C@@H]1Cc2cccc3c2n(c(=O)n3CCCCCCCCCCCCOc2ccc3c(c2)NC(=O)CC3)C1
label_value: False
//
smiles: CN(CCCCOc1ccc2c(c1)NC(=O)CC2)[C@@H]1Cc2cccc3[nH]c(=O)n(c23)C1
label_value: True
//
smiles: CN[C@@H]1Cc2cccc3c2n(c(=O)n3CCCCOc2ccc3c(c2)NC(=O)CC3)C1
label_value: False
//
smiles: CN[C@@H]1Cc2cccc3c2n(c(=O)n3CCOCCOCCOCCCCc2ccccc2)C1
label_value: True
//
smiles: CCCN[C@@H]1Cc2cccc3c2n(c(=O)n3CCCCOCCCCc2ccccc2)C1
label_value: True

Where these numbers come from: ChEMBL document CHEMBL4007493
